pKi values for the compounds below.
target: Delta-type opioid receptor (Rattus norvegicus); experiment: Displacement of [3H]deltorphin2 from delta opioid receptor in Sprague-Dawley rat brain P2 synaptosomal membrane
Sequence (P33533 whole entry): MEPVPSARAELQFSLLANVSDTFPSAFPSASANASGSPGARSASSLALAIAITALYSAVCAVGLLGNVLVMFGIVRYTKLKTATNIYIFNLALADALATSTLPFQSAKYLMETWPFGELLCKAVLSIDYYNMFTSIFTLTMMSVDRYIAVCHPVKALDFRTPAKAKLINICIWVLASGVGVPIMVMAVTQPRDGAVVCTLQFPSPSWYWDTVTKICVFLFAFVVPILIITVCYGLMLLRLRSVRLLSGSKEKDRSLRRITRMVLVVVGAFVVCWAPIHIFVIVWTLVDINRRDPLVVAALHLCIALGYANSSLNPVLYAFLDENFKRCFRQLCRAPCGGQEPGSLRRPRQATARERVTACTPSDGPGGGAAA
pKi: −log10 of the molar value. Where a SMILES comes first, the peptide text is derived from it. [ ]: non-standard residue; d: D form. The star is where a group is joined. Dmt = Cc1cc(O)cc(C)c1C[C@H](N)C(=O)O; Tic = O=C(O)[C@@H]1Cc2ccccc2CN1; Cbz = O=C(OCc1ccccc1)*; NHBn = c1ccc(CN*)cc1; NHPh = c1ccc(N*)cc1
MEASURED PARAMETER: pKi

>  <COMPOUND>
Cc1cc(O)cc(C)c1C[C@H](N)C(=O)N1Cc2ccccc2C[C@H]1C(=O)N[C@H](CCCCNC(=O)OCc1ccccc1)c1nc2ccccc2[nH]1

>  <VALUE REPORTED>
9.40

$$$$
>  <COMPOUND>
Cc1cc(O)cc(C)c1C[C@H](N)C(=O)N1Cc2ccccc2C[C@H]1C(=O)N[C@@H](CCCCNC(=O)OCc1ccccc1)C(=O)NCc1ccccc1 (H-[Dmt]-[Tic]-Lys(Cbz)-NHBn)

>  <VALUE REPORTED>
9.51

$$$$
>  <COMPOUND>
Cc1cc(O)cc(C)c1C[C@H](N)C(=O)N1Cc2ccccc2C[C@H]1C(=O)N[C@@H](CCCCN)C(=O)Nc1ccccc1 (H-[Dmt]-[Tic]-Lys-NHPh)

>  <VALUE REPORTED>
9.38

$$$$
>  <COMPOUND>
CC(=O)NCCCC[C@H](NC(=O)[C@@H]1Cc2ccccc2CN1C(=O)[C@@H](N)Cc1c(C)cc(O)cc1C)C(=O)Nc1ccccc1 (H-[Dmt]-[Tic]-Lys(Ac)-NHPh)

>  <VALUE REPORTED>
9.89

$$$$
>  <COMPOUND>
CC(=O)NCCCC[C@H](NC(=O)[C@@H]1Cc2ccccc2CN1C(=O)[C@@H](N)Cc1c(C)cc(O)cc1C)C(=O)NCc1ccccc1 (H-[Dmt]-[Tic]-Lys(Ac)-NHBn)

>  <VALUE REPORTED>
10.17

$$$$
>  <COMPOUND>
Cc1cc(O)cc(C)c1C[C@H](N)C(=O)N1Cc2ccccc2C[C@H]1C(=O)N[C@@H](CCCCNC(=O)OCc1ccccc1)c1nc2ccccc2[nH]1

>  <VALUE REPORTED>
9.19

$$$$
>  <COMPOUND>
Cc1cc(O)cc(C)c1C[C@H](N)C(=O)N1Cc2ccccc2C[C@H]1C(=O)N[C@@H](CCCCN)C(=O)NCc1ccccc1 (H-[Dmt]-[Tic]-Lys-NHBn)

>  <VALUE REPORTED>
9.30

$$$$
>  <COMPOUND>
Cc1cc(O)cc(C)c1C[C@H](N)C(=O)N1Cc2ccccc2C[C@H]1C(=O)N[C@@H](CCCCNC(=O)OCc1ccccc1)C(=O)Nc1ccccc1 (H-[Dmt]-[Tic]-Lys(Cbz)-NHPh)

>  <VALUE REPORTED>
9.24

$$$$
>  <COMPOUND>
Cc1cc(O)cc(C)c1C[C@H](N)C(=O)N1Cc2ccccc2C[C@H]1C(=O)NCC(=O)O (H-[Dmt]-[Tic]-Gly-OH)

>  <VALUE REPORTED>
8.86

$$$$
